Where do these numbers come from? They come from BindingDB's records for patent US10174013.

- target-or-system: Potassium voltage-gated channel subfamily H member 2 (Homo sapiens)
- Sequence (Q12809 whole entry): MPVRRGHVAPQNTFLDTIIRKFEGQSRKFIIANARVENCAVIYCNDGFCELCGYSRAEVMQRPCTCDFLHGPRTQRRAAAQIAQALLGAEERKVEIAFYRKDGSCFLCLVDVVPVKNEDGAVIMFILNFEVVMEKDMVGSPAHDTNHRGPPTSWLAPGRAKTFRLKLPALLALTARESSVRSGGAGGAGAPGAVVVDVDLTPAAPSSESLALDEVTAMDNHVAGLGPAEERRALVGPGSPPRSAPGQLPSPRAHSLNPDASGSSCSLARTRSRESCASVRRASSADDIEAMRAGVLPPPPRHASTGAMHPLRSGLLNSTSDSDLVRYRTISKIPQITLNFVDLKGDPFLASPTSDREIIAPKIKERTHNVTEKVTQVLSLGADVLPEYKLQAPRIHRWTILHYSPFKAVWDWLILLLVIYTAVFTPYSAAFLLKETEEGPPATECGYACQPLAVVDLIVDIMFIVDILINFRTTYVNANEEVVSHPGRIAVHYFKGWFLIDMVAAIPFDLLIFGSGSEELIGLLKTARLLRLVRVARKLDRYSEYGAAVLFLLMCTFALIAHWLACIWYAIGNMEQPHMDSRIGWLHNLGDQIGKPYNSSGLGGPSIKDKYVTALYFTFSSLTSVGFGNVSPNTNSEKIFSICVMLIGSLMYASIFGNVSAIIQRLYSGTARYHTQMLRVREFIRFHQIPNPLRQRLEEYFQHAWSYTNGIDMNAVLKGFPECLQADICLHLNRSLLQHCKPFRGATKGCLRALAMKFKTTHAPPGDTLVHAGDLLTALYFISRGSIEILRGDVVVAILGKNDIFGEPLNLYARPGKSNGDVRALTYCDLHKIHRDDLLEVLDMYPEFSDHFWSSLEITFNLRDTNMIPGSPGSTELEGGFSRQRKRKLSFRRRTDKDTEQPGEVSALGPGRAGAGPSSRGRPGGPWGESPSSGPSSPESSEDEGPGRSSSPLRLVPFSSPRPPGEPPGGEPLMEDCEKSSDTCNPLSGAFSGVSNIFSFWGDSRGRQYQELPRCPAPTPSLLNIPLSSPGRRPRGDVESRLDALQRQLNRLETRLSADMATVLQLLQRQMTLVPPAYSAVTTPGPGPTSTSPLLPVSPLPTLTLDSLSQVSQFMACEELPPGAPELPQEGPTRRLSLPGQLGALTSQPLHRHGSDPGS
- procedure-details: Determination of a Possible Activity on hERG
property-name: IC50 (µM)

chemical-smiles: CCn1c(N2CCNCC2)nc2c([N+](=O)[O-])c(Br)c(Br)cc21
readout-unit: µM
assay-value: 20.4

###

- target-or-system: Receptor-type tyrosine-protein kinase FLT3 [D835H] (Homo sapiens, UniProt P36888, D835H)
- procedure-details: FLT3 Kinase assay

chemical-smiles: CC(C)n1c(N2CCNCC2)nc2c([N+](=O)[O-])c(Br)c(Br)cc21
Kd (nM): 28

###

- target-or-system: Receptor-type tyrosine-protein kinase FLT3 (Homo sapiens)
- procedure-details: FLT3 Kinase assay
- Method: Selected compounds were also tested for their binding properties against FLT3 kinase mutants using suitable in vitro assays (performed according to standard assays at DiscoveRx Corporation). The compounds show strong binding to the main oncogenic mutants of the FLT3 kinase.
property-name: Kd (nM)

chemical-smiles: CC(C)n1c(N2CCNCC2)nc2c([N+](=O)[O-])c(Br)c(Br)cc21
target-or-system: Receptor-type tyrosine-protein kinase FLT3 (Homo sapiens)
assay-value: 130

###

- target-or-system: Receptor-type tyrosine-protein kinase FLT3 [D835Y] (Homo sapiens, UniProt P36888, D835Y)
- procedure-details: FLT3 Kinase assay
pKd: −log10 of the molar value.
property-name: pKd

compound: CC(C)n1c(N2CCNCC2)nc2c([N+](=O)[O-])c(Br)c(Br)cc21 [US10174013, Example 2A]
assay-value: 7.82
